- experimentalSystem: enzyme 5α-reductase
- methodNotes: enzymatic in vitro method described in WO/9413691 (5α-reductase inhibition)
- appliedConditions: concentration inhibiting by 50% the enzymatic activity; Finasteride as control product
assayMetric: IC50 (µM)

Consider the reported IC50 for these compounds:
- compound: "CC(C)(C)NC(=O)[C@H]1C[C@H](O)[C@H]2[C@@H]3CCC4NC(=O)CC[C@]4(C)[C@H]3CC[C@@]21C (stereo partly shown) [Product 2]"
  experimentalSystem: "enzyme 5α-reductase"
  IC50 / µM: 0.035
- compound: "CC(C)(C)NC(=O)[C@H]1CC[C@H]2[C@@H]3CC[C@H]4NC(=O)C=C[C@]4(C)[C@H]3CC[C@]12C [Finasteride, reference compound]"
  experimentalSystem: "enzyme 5α-reductase"
  IC50 / µM: 0.037

[a] CC(C)(C)NC(=O)[C@H]1C[C@@H](O)[C@H]2[C@@H]3CCC4NC(=O)CC[C@]4(C)[C@H]3CC[C@@]21C (stereo partly shown) [Product 3]
[b] CC(C)(C)NC(=O)[C@H]1CC[C@H]2[C@@H]3C[C@H](O)C4NC(=O)CC[C@]4(C)[C@H]3CC[C@]12C (stereo partly shown) [Product 1]
query: Larger number for IC50: a , or b ? Refer to your chosen item by its label in the answer.
result: b
(b: 0.195 µM, a: 0.035 µM)
